Sequence of the target: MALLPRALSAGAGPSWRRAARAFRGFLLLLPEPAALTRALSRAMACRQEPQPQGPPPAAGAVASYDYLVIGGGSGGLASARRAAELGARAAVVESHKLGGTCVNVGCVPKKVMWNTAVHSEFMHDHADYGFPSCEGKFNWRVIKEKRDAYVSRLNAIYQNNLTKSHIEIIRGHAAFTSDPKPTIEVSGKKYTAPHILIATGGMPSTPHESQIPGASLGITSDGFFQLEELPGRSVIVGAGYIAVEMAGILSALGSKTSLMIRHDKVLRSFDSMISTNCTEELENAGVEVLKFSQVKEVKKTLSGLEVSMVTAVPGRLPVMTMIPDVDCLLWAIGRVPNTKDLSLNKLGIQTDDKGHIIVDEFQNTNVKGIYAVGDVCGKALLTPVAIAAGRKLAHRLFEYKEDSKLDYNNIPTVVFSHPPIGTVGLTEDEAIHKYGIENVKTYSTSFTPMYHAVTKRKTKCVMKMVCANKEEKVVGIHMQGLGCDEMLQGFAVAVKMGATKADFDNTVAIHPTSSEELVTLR
ASSAY_ENDPOINT: IC50
Your reply should be a number followed by the unit it is expressed in.

O=c1oc2c(O)c(O)c(O)c3c(=O)oc4c(O)c(O)c(O)c1c4c23
7.6 µM
O=c1oc2c(O)c(O)cc3c(=O)oc4c(O)c(O)cc1c4c23
22.8 µM

Switching to the query record.
**Query** Query (compound): O=c1oc2c(O)c(O)c(O)c3c(=O)oc4c(O)c(O)cc1c4c23 ; field requested: IC50
**Result** 26.7 µM

====

EXPERIMENT_SUMMARY: Cytotoxicity against human A549 cells assessed as reduction in viable cells at 60 uM by Trypan blue assay
Format: cell-based
CONDITION_INFO: read-out: INH
ASSAY_ENDPOINT: cytotoxicity at 60 µM (%)
Answer in %, number only, no unit symbol.

**Query** Query (compound): O=c1oc2c(O)c(O)c(O)c3c(=O)oc4c(O)c(O)c(O)c1c4c23 [CORULEOELLAGIC ACID] ; field requested: cytotoxicity at 60 µM
**Result** 50

====

Test system: Plasmodium falciparum
EXPERIMENT_SUMMARY: Antiplasmodial activity against chloroquine-sensitive Plasmodium falciparum 3D7
Assay type: functional, organism-based
ASSAY_ENDPOINT: pIC50
# pIC50 is unitless: minus log10 of the molar concentration; print number only

Recorded pIC50, per entry:
O=c1oc2c(O)c(O)c(O)c3c(=O)oc4c(O)c(O)cc1c4c23 [FLAVELLAGIC ACID]
7.03
O=c1oc2c(O)c(O)c(O)c3c(=O)oc4c(O)c(O)c(O)c1c4c23 [CORULEOELLAGIC ACID]
7.38

Switching to the query record.
**Query** Query for Plasmodium falciparum: what pIC50 does the record show for O=c1oc2c(O)c(O)cc3c(=O)oc4c(O)c(O)cc1c4c23 [ELLAGIC ACID] ?
**Result** 6.09

====

Here, each record is paired with measured IC50 data.
EXPERIMENT_SUMMARY: Inhibition of Plasmodium falciparum thioredoxin reductase TrxR assay
Your reply should be a number followed by the unit it is expressed in.

Recorded IC50, per entry:
O=c1oc2c(O)c(O)c(O)c3c(=O)oc4c(O)c(O)c(O)c1c4c23
6.8 µM
O=c1oc2c(O)c(O)cc3c(=O)oc4c(O)c(O)cc1c4c23
66.7 µM

Switching to the query record.
**Query** Query (compound): O=c1oc2c(O)c(O)c(O)c3c(=O)oc4c(O)c(O)cc1c4c23 ; field requested: IC50
**Result** 21.7 µM
